# system-name: Phosphatidylinositol 4-kinase, PI4K (Homo sapiens, UniProt Q9BTU6+Q8TCG2+Q9UBF8+P42356)
# assay-info: Binding affinity (Ki) against human phosphatidylinositol 4-kinase
# Assay type: protein assay
// NB: equality with 30 µM counts as N; only Ki strictly below is Y

Before answering, review these 8 worked examples.
>>> print(df.to_string())
                        molecule  category_label
0       Nc1ncnc2c1ncn2-c1ccccc1F               Y
1    Nc1ncnc2c1ncn2-c1ccc(Cl)cc1               Y
2       Cl.Nc1ncnc2nc(Br)[nH]c12               N
3  COc1ccc(-n2cnc3c(N)ncnc32)cc1               Y
4        Nc1ncnc2c1ncn2C1CCCCCC1               Y
5              Cn1cnc2c(N)ncnc21               N
6          Cc1nc2[nH]cnc(N)c-2n1               N
7           Cl.Nc1ncnc2nc[nH]c12               N

Does this molecule meet the criterion Ki < 30 µM? Nc1ncnc2[nH]ncc12
N

Does this molecule meet the criterion Ki < 30 µM? CC(C)n1cnc2c(N)ncnc21
Y

Does this molecule meet the criterion Ki < 30 µM? Nc1ncnc2c1ncn2-c1cccc2ccccc12
N

Does this molecule meet the criterion Ki < 30 µM? c1ccc(CNc2ncnc3nc[nH]c23)cc1
N

Does this molecule meet the criterion Ki < 30 µM? Nc1ncnc2c1ncn2[C@@H]1O[C@H](COP(=O)(O)OP(=O)(O)O)[C@@H](O)[C@H]1O [ADENOSINE DIPHOSPHATE]
N

Numbers sourced from ChEMBL document CHEMBL1124860.
